Consider the following molecules and their measured activity change, negative = inhibition readings.
assay: Primary qHTS to identify inhibitors of SARS-CoV-2 cell entry (AID 1645846); settings: SARS-CoV-2 pseudovirus cell entry assay, luminescence; at 57.1 µM (top of the series) unless noted; further: nearly all actives have a fitted effect of over 45% in size
Results filed as inconclusive are left out.
measured_quantity: activity change, negative = inhibition (%)

structure_notation	measure_unit	readout_value
CC(/C=C/C=C(\C)C(=O)O[C@@H]1O[C@H](CO[C@@H]2O[C@H](CO)[C@@H](O)[C@H](O)[C@H]2O)[C@@H](O)[C@H](O)[C@H]1O)=C\C=C\C=C(C)\C=C\C=C(/C)C(=O)O[C@@H]1O[C@H](CO[C@@H]2O[C@H](CO)[C@@H](O)[C@H](O)[C@H]2O)[C@@H](O)[C@H](O)[C@H]1O	%	-12.5
CN(CC(=O)N(Cc1ccc(C2CCCCC2)cc1)c1ccc(C(=O)O)c(O)c1)S(=O)(=O)c1c(F)c(F)c(F)c(F)c1F	%	-15.1
Nc1cc(Cl)c(NC2=NCCN2)c(Cl)c1	%	-17
COc1cc(NC(=O)c2ccc(-c3ccc(Cl)cc3)o2)cc(OC)c1	%	-4.11

----------
assay: Confirmatory qHTS for VERO E6 Cytotoxicity Assay: Counterscreen for SARS-CoV-2 CPE Assay (AID 1508605); details: cell viability luminescence; series mostly up to 20 µM; further: nearly all actives have a fitted effect of over 60% in size; further: potency means the concentration at half of the fitted maximal effect
Records with an inconclusive call do not appear. The source made the active and inactive calls. Calls follow the shape of the full dose curve. Square brackets hold non-standard residues; d marks the D form. Peptide text beside a SMILES is read from it. * marks the point of attachment. Nva = CCC[C@H](N)C(=O)O; Cbz = O=C(OCc1ccccc1)*
measured_quantity: Potency

compound	measured_quantity	readout_value
CC(=O)O[C@@H]1CC2C(C)(C)C(=O)C=C[C@]2(C)C2CC[C@]3(C)C(=CC(=O)O[C@H]3c3ccoc3)[C@@]21C (some centres undefined)	Potency	inactive
CCCCCCCCCCCCc1ccc(S(=O)(=O)Nc2nncs2)cc1	Potency	inactive
Cc1c(NC(=O)OC[C@@H]2COCCN2)cn2ncnc(Nc3ccc4c(cnn4Cc4cccc(F)c4)c3)c12	Potency	11.2 µM (active)
COc1ccccc1OCCNCC(O)CCOc1cccc2[nH]c3ccccc3c12 (centres undefined)	Potency	inactive
CN(C)S(=O)(=O)c1ccc(NC(=S)N2CCC(C(O)(c3ccccc3)c3ccccc3)CC2)cc1	Potency	inactive
O=S(=O)(c1cccc2c(I)cccc12)N1CCCNCC1	Potency	inactive
COc1ccccc1OCCN1CC(COc2cccc3[nH]c4ccccc4c23)OCC1=O (centres undefined)	Potency	inactive
O=C(N[C@@H](c1ccccc1)[C@@H]1CCCCN1)c1cccc(C(F)(F)F)c1Cl	Potency	inactive
COc1ccc2c(c1)c(CCN(C)C)cn2S(=O)(=O)c1ccccc1	Potency	inactive
CC(C)(C)Cn1c(N)nc2ccc(-c3[nH]c(C(C)(C)C)nc3-c3ccc(F)cc3)nc21	Potency	11.2 µM (active)
c1cncc(CN2CCC(n3ncc4c(N5CCOCC5)nc(-c5ccc6[nH]ccc6c5)nc43)CC2)c1	Potency	2.51 µM (active)
CCc1cccc(CC)c1-n1c(C=C(C)C)c(C(=O)N2CCNCC2)cc(-c2nc(-c3ccc(C(F)(F)F)cc3)cs2)c1=O	Potency	inactive
Oc1ccc2c3c1O[C@H]1c4[nH]c5c(N=C=S)cccc5c4C[C@@]4(O)[C@@H](C2)N(CC2CC2)CC[C@]314	Potency	inactive
Cc1cccc(Nc2nc(-c3ccncc3)cs2)c1	Potency	10 µM (active)
COc1cccc([C@@H](C)NCCCc2ccccc2Cl)c1	Potency	inactive
CN1CCC(c2cn(C)c3ccc(OS(=O)(=O)c4c(F)cccc4F)cc23)CC1	Potency	inactive
COc1cc(Nc2nc3ccccc3nc2NS(=O)(=O)c2ccc(NC(=O)c3ccc(C)c(OC)c3)cc2)cc(OC)c1	Potency	inactive
O=C1NC(=O)/C(=C/c2cccc(C(F)(F)F)c2)S1	Potency	inactive
O=C1NC(=O)c2cc(Nc3ccccc3)c(Nc3ccccc3)cc21	Potency	11.2 µM (active)
NC(=O)c1cccc(-c2cc(Nc3ccc(OC(F)(F)F)cc3)ncn2)c1	Potency	inactive
Cc1cc(O)c2c(c1)O[C@@]1(C)CC[C@H]3C(C)(C)CCCC34CO[C@@H]2[C@H]41 (some centres undefined)	Potency	inactive
CCC(=O)c1cc(-c2ccc(Cl)cc2)n(-c2ccc(S(N)(=O)=O)cc2)c1C	Potency	inactive
CCC[C@@H](C=O)NC(=O)[C@H](CC(C)C)NC(=O)[C@H](CC(C)C)NC(=O)OCc1ccccc1 (Cbz-Leu-Leu-[Nva]-aldehyde)	Potency	0.714 µM (active)
CC1=CC(=O)[C@@H](O)[C@]2(C)C3[C@@H](O)[C@@H]4OC(=O)[C@@H]([C@H]4C)[C@]3(C)C(=O)C[C@@H]12 (some centres undefined)	Potency	2.24 µM (active)
Cn1nc(C(C)(C)C)cc1C(=O)N[C@@H](Cc1cccc(Cl)c1)C(=O)NCC#N	Potency	inactive
NC(=O)c1cccc2cn(-c3ccc([C@@H]4CCCNC4)cc3)nc12	Potency	inactive
COc1ccc(CCNCc2ccc(OC)c3ccccc23)cc1	Potency	inactive
C[C@@H]1O[C@@H](O[C@H]2[C@H](OC(=O)[C@]34CCC(C)(C)C[C@H]3C3=CCC5[C@@]6(C)CC[C@H](O[C@@H]7O[C@H](CO[C@@H]8OC[C@H](O)[C@H](O)[C@H]8O)[C@@H](O)[C@H](O)[C@H]7O)C(C)(C)C6CC[C@@]5(C)[C@]3(C)C[C@H]4O)OC[C@@H](O)[C@@H]2O)[C@H](O)[C@H](O[C@@H]2OC[C@](O)(CO)[C@H]2O)[C@H]1O[C@@H]1OC[C@H](O)[C@H](O[C@@H]2OC[C@@H](O)[C@H](O)[C@H]2O)[C@H]1O (some centres undefined)	Potency	1.91 µM (active)
COc1ccc(CN2CCN(CCCSc3cc(C(C)(C)C)c(O)c(C(C)(C)C)c3)CC2)c(OC)c1OC	Potency	inactive

----------
biological target: Nucleoprotein (Lymphocytic choriomeningitis virus (strain Armstrong)); experiment: qHTS for Inhibitors of the Functional Ribonucleoprotein Complex (vRNP) of Lymphocytic Choriomeningitis Arenaviruses (LCMV): LCMV Primary Screen - GLuc reporter signal (AID 1347086); details: LCMV minigenome vRNP cell assay, Gaussia luciferase reporter; series mostly up to 57.5 µM; further: on the % scale 0 is the no-effect control and ±100 the full control effect; nearly all actives have a fitted effect of over 70% in size
Records with an inconclusive call do not appear. Calls of active or inactive are those of the source. The call rests on the fitted dose curve.

molecule	outcome
CC1CC[C@@]2(OC1)O[C@H]1CC3[C@@H]4C[C@@H](O)[C@@]5(O)C[C@@H](O)[C@H](O)C[C@]5(C)[C@H]4CC[C@]3(C)[C@H]1[C@@H]2C (stereo not given in full)	inactive
CCCn1c(=O)c2[nH]c(C3CCCC3)nc2n(CCC)c1=O	inactive
COC(=O)/C=C\C(=O)O	inactive
CC/C=C/CCO	inactive
Nc1ncnc2c1nc(Sc1ccc(Cl)cc1)n2[C@H]1OC2COP(=O)(O)O[C@@H]2C1O (stereo not given in full)	inactive

----------
test system: DIV30; test: qHTS profiling for inhibitors of Plasmodium falciparum proliferation (AID 504749); further: nearly all actives have a fitted effect of over 60% in size; settings: P. falciparum in erythrocytes, SYBR Green DNA, 72 h; series mostly up to 28.7 µM
Records with an inconclusive call do not appear. Active and inactive are the calls of the source. Calls come from the whole dose curve; as a rule, active = well fitted inhibition curve with a large enough effect; inconclusive = small, poorly fitted or top-dose-only effect; inactive = flat fitted curve, though single readings scatter.
Classes used: TRUE (active), FALSE (inactive)

compound	class
CCN(CC)CCO[C@H]1CC[C@@]2(C)C(=CC[C@@H]3[C@H]2CC[C@]2(C)C(=O)CC[C@H]32)C1	FALSE
O=C(O)c1ccccc1-c1c2cc(Br)c(=O)cc-2oc2[c]([Hg])c(O)c(Br)cc12	FALSE
CO[C@H]1[C@@H](O)CC(OC2[C@@H](O)CC(OC3[C@@H](O)C[C@H](OC4CC[C@@]5(C)C(CCC6C5CC(O)[C@]5(C)[C@H](C7=CC(=O)OC7)CCC65O)C4)O[C@@H]3C)O[C@@H]2C)O[C@@H]1C (stereo not given in full)	FALSE
CCCCCCCCCC[N+](C)(C)CCCCCCCCCC	TRUE
C[N+](C)(C)CC(=O)[O-]	FALSE

----------
tested on: C33A; experiment: Primary qHTS to identify gynecologic anti-cancer compounds using libraries of approved drugs and bioactive compounds (AID 1345084); conditions: Gynecologic cancer cell panel viability, ATPlite luminescence, 48 h; series mostly up to 57.5 µM; further: nearly all actives have a fitted effect of over 55% in size
Inconclusive results are not listed. The source made the active and inactive calls. Calls follow the shape of the dose curve; as a rule, active = well fitted cell-killing curve with a large enough effect; inconclusive = small, poorly fitted or top-dose-only effect, or effect the other way; inactive = flat fitted curve, though single readings scatter. *1 amine or outer side, *2 acyl side, *3 side chain or, on linkers, in order; H or OH if unused. Where a SMILES comes first, the peptide text is derived from it. [ ]: non-standard residue; d: D form. X5 = CC(CC(O[*:1])C(=O)[*:2])C(=O)O; NMeV = CN[CH](C(=O)O)C(C)C; NMeA = CN[CH](C)C(=O)O; βAla = NCCC(=O)O
Classes used: yes (1) (active), no (0) (inactive)

compound	test_target	class
CC(=O)OC[C@]12C[C@H](O)C(C)=C[C@H]1O[C@@H]1[C@H](O)[C@@H](OC(C)=O)[C@@]2(C)[C@]12CO2	C33A	yes (1)
CN1C(=O)[C@@H](Cc2c[nH]c3ccccc23)N=C(c2ccccc2F)c2ccccc21	C33A	no (0)
C=C1[C@@H](C)C2[C@H](Cc3ccccc3)NC(=O)[C@@]23C(/C=C/C[C@H](C)C[C@@](C)(O)/C=C/[C@@H]3OC(C)=O)[C@@H]1O (stereo partly drawn)	C33A	no (0)
CC1=C[C@H]2O[C@@H]3[C@H](O)[C@@H](O)[C@](C)([C@@]2(CO)C[C@@H]1O)[C@]31CO1	C33A	yes (1)
C[C@]12CC[C@@H](O[C@@H]3O[C@H](CO)[C@@H](O)[C@H](O)[C@H]3O)C[C@@]1(O)CCC1C2CC[C@]2(C)[C@@H](C3=CC(=O)OC3)CC[C@]12O (stereo partly drawn)	C33A	yes (1)
CC(=O)O[C@H]1CC[C@@]2(CI)C(=CC[C@@H]3[C@@H]2CC[C@]2(C)C(=O)CC[C@@H]32)C1	C33A	no (0)
COC(=O)C1=COC(C)C2CN3CCC4(C(=O)Nc5ccccc54)C3CC12 (stereo not drawn)	C33A	no (0)
C[C@]12CCC(=O)C=C1CC[C@@H]1[C@@H]2[C@@H](O)C[C@]2(C)C(=O)CC[C@@H]12	C33A	no (0)
CCC(C)C1NC(=O)C2CCCN2C(=O)C(CC(C)C(=O)O)OC(=O)CCNC(=O)C(C)N(C)C(=O)C(C(C)C)N(C)C1=O (stereo not drawn) (cyclo([X5]PI[NMeV][NMeA][βAla]); configuration not given here)	C33A	no (0)
NCCCCCNC1(c2ccccc2)CCCCC1	C33A	no (0)
C[C@H]1CCC[C@H](O)CCC/C=C/c2cc(O)cc(O)c2C(=O)O1	C33A	no (0)
COC(=O)[C@]12CCCC(C)(C)C1CCc1cc(C(C)C)c(O)c(O)c12 (stereo partly drawn)	C33A	no (0)
CC1(C)C(=O)N(c2ccc(C#N)c(C(F)(F)F)c2)C(=O)N1CCCCO	C33A	no (0)
C[C@H](CCC(=O)O)C[C@H](C)C[C@H](C)C(=O)/C=C(\O)[C@H](C)C[C@H](C)C/C=C/[C@@H](C)[C@@H](O)[C@@H](C)[C@@H](O)C[C@@H]1CC[C@@](C)([C@H]2CC[C@@](C)([C@@H](C)O)O2)O1	C33A	no (0)
CNC(=O)c1cc(C#N)cc(C)c1NC(=O)c1cc(Br)nn1-c1ncccc1Cl	C33A	no (0)
C=C(C)[C@@]12O[C@@H]1[C@@]1(C)C(=C[C@H]2O)CC[C@@H](O)[C@@H]1C	C33A	no (0)
C/C=C1/CN2CC[C@]34C(=Nc5ccc(OC)cc53)C2C[C@@H]1C4(CO)C(=O)OC (stereo partly drawn)	C33A	no (0)
O=C1N[C@@H](Cc2ccccc2)CN2CCCC[C@@H]12	C33A	no (0)

Source listed as PubChem BioAssay (NCATS).
